- Tested On: P2Y1 receptor (Mus musculus)
- Sequence (P49650 whole entry): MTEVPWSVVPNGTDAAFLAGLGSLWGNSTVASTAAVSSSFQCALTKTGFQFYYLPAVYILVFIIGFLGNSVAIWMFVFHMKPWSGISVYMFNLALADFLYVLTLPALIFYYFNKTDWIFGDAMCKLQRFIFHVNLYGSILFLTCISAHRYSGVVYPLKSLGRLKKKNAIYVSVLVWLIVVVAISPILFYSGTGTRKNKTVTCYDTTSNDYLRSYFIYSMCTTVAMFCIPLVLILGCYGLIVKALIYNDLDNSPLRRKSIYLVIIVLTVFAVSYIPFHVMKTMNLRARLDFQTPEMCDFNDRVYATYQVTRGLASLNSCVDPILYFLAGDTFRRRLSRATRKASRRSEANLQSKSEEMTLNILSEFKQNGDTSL
- Procedure Summary: Competition binding against [125I]MRS2500 in MIN6 cell membranes
Assay Endpoint: Ki (nM)
Just the number please, in nM, no unit attached.

Query: Notebook: pull reported Ki for P2Y1 receptor (Mus musculus), entry CNc1ncnc2c1ncn2[C@H]1C[C@H](OP(=O)(O)O)[C@@H](COP(=O)(O)O)O1 [MRS2179]
Reply: 49.8

----------
- Tested On: P2Y1 receptor (Mus musculus)
- Procedure Summary: Competition binding against [125I]MRS2500 in MIN6 cell membranes
- Reported Conditions: against [125I]MRS2500, MIN6 cell membranes, mean ± s.e.m. of three experiments
Item-by-item account of pKi
Scale explanation: pKi corresponds to minus log10 of a concentration expressed in moles per litre.

Consider the following illustrative entries.
INSERT INTO assay_data (smiles_notation, value) VALUES
  ('CNc1nc(I)nc2c1ncn2[C@H]1C[C@H](OP(=O)(O)O)[C@]2(COP(=O)(O)O)C[C@H]12', 8.53),
  ('CNc1nc(Cl)nc2c1ncn2[C@H]1C[C@H](OP(=O)(O)O)[C@]2(COP(=O)(O)O)C[C@H]12', 8.16);

Here is the next item to consider.
Query: Which pKi value is on record for "Nc1ncnc2c1ncn2[C@@H]1O[C@H](COP(=O)(O)OP(=O)(O)O)[C@@H](O)[C@H]1O" ?
Reply: 6.48

----------
- Tested On: mouse P2Y1 receptor (Mus musculus, UniProt P49650)
- Sequence (P49650 whole entry): as above
Assay Endpoint: Kd (nM)
Response body: numeric value in nM, unit text excluded.

Query: Query Kd on mouse P2Y1 receptor (Mus musculus, UniProt P49650) for CNc1nc(I)nc2c1ncn2[C@H]1C[C@H](OP(=O)(O)O)[C@]2(COP(=O)(O)O)C[C@H]12 [[^125I]MRS2500]
Reply: 4.74
